system: 349418-098-R-PDC complex spheroid viability; assay: Anticancer human tumor 349418-098-R-PDC patient-derived lung adenocarcinoma cell line growth inhibition; details: second compound 3.16 µM; first compound 0.000316 µM; stronger effect = lower value
Label condition met when viability, T/C is strictly below 90%; otherwise label condition not met.

Solved cases below.
MOLECULE: CC(C)CC(NC(=O)C(Cc1ccccc1)NC(=O)c1cnccn1)B(O)O (stereo not drawn) + NC1CC1c1ccc(-c2cccc(O)c2)cc1
ASSIGNED_LABEL: condition met

MOLECULE: CC[C@@]1(O)C(=O)OCc2c1cc1n(c2=O)Cc2cc3c(CN(C)C)c(O)ccc3nc2-1 + NC1CC1c1ccc(-c2cccc(O)c2)cc1
ASSIGNED_LABEL: condition not met

MOLECULE: Cn1ncnc1C1c2n[nH]c(=O)c3cc(F)cc(c23)NC1c1ccc(F)cc1 (stereo not drawn) + NC1CC1c1ccc(-c2cccc(O)c2)cc1
ASSIGNED_LABEL: condition not met

MOLECULE: Cn1ncnc1C1c2n[nH]c(=O)c3cc(F)cc(c23)NC1c1ccc(F)cc1 (stereo not drawn) + NC1CCC(NC2CC2c2ccccc2)CC1
ASSIGNED_LABEL: condition not met

MOLECULE: CC(C)CC(NC(=O)C(Cc1ccccc1)NC(=O)c1cnccn1)B(O)O (stereo not drawn) + NC1CCC(NC2CC2c2ccccc2)CC1
ASSIGNED_LABEL: condition met

Inquiry: Would you kindly verify if viability, T/C of CC(C)CC(NC(=O)CNC(=O)c1cc(Cl)ccc1Cl)B1OC(=O)CC(CC(=O)O)(C(=O)O)O1 (stereo not drawn) + NC1CCC(NC2CC2c2ccccc2)CC1 is strictly less than 90%?
Reply text: condition met

Inquiry: Would you kindly verify if viability, T/C of CC(C)CC(NC(=O)CNC(=O)c1cc(Cl)ccc1Cl)B1OC(=O)CC(CC(=O)O)(C(=O)O)O1 (stereo not drawn) + NC1CC1c1ccc(-c2cccc(O)c2)cc1 is strictly less than 90%?
Reply text: condition not met

====

system: 349418-098-R-PDC complex spheroid viability; assay: Anticancer human tumor 349418-098-R-PDC cell line growth inhibition; details: second compound 3.16 µM; first compound 0.01 µM; stronger effect = lower value;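 note: spheroids exposed to agents for seven days before readout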;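 for viability, T/C: 100% = DMSO vehicle control wells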
MEASURE_NAME: viability, T/C (%)
Entry rule: numbers only, all in %.

Some entries whose results are on file:
COMPOUND: CC(C)CC(NC(=O)C(Cc1ccccc1)NC(=O)c1cnccn1)B(O)O (centres undefined) + NC1CC1c1ccc(-c2cccc(O)c2)cc1
viability, T/C / %: 1.06
//
COMPOUND: CC(C)CC(NC(=O)CNC(=O)c1cc(Cl)ccc1Cl)B1OC(=O)CC(CC(=O)O)(C(=O)O)O1 (centres undefined) + NC1CC1c1ccc(-c2cccc(O)c2)cc1
viability, T/C / %: 1.62
//
COMPOUND: O=C(C=Cn1cnc(-c2cc(C(F)(F)F)cc(C(F)(F)F)c2)n1)NNc1cnccn1 + NC1CC1c1ccc(-c2cccc(O)c2)cc1
viability, T/C / %: 16.3

Inquiry: Input Cn1ncnc1C1c2n[nH]c(=O)c3cc(F)cc(c23)NC1c1ccc(F)cc1 (centres undefined) + NC1CC1c1ccc(-c2cccc(O)c2)cc1 , output reported viability, T/C.
Reply text: 115

Inquiry: Input CC[C@@]1(O)C(=O)OCc2c1cc1n(c2=O)Cc2cc3c(CN(C)C)c(O)ccc3nc2-1 + NC1CCC(NC2CC2c2ccccc2)CC1 , output reported viability, T/C.
Reply text: 9.52

Inquiry: Input CC(C)CC(NC(=O)CNC(=O)c1cc(Cl)ccc1Cl)B1OC(=O)CC(CC(=O)O)(C(=O)O)O1 (centres undefined) + NC1CCC(NC2CC2c2ccccc2)CC1 , output reported viability, T/C.
Reply text: 1.66

Inquiry: Input CC(C)CC(NC(=O)C(Cc1ccccc1)NC(=O)c1cnccn1)B(O)O (centres undefined) + NC1CCC(NC2CC2c2ccccc2)CC1 , output reported viability, T/C.
Reply text: 0.63

Inquiry: Input CC1COCCN1c1cc(-c2ccnn2C)c2ccnc(-c3ccn[nH]3)c2n1 (centres undefined) + NC1CCC(NC2CC2c2ccccc2)CC1 , output reported viability, T/C.
Reply text: 48.5

Inquiry: Input COc1cc(Nc2ncc3c(n2)-c2ccc(Cl)cc2C(c2c(F)cccc2OC)=NC3)ccc1C(=O)O + NC1CC1c1ccc(-c2cccc(O)c2)cc1 , output reported viability, T/C.
Reply text: 47.5

====

# pIC50 per record follows
test system: 349418-098-R-PDC complex spheroid viability; assay: Anticancer human tumor 349418-098-R-PDC cell line growth inhibition; settings: curve of first compound; second compound 1 µM;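 note: spheroids exposed to agents for seven days before readout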
Worth noting: pIC50 values are minus log10 of concentrations stated in mol/L.

Inquiry: Input Nc1ncn(C2CC(O)C(CO)O2)c(=O)n1 (centres undefined) + NC1CC1c1ccc(-c2cccc(O)c2)cc1 , output reported pIC50.
Reply text: 7.05

Inquiry: Input Nc1ccccc1NC(=O)c1ccc(CNC(=O)OCc2cccnc2)cc1 + NC1CC1c1ccc(-c2cccc(O)c2)cc1 , output reported pIC50.
Reply text: 6.92

Inquiry: Input Nc1ncn(C2CC(O)C(CO)O2)c(=O)n1 (centres undefined) + NC1CCC(NC2CC2c2ccccc2)CC1 , output reported pIC50.
Reply text: 7.56

====

system: 349418-098-R-PDC complex spheroid viability; test: Anticancer human tumor 349418-098-R-PDC cell line growth inhibition; details: second compound 10 µM; first compound 0.03 µM; stronger effect = lower value;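 note: spheroids exposed to agents for seven days before readout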;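 for viability, T/C: 100% = DMSO vehicle control wells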
# viability, T/C per record follows
Entry rule: numbers only, all in %.

COMPOUND: COc1cc(C2c3cc4c(cc3C(OC3OC5COC(C)OC5C(O)C3O)C3COC(=O)C23)OCO4)cc(OC)c1O (centres undefined) + NC1CCC(NC2CC2c2ccccc2)CC1
viability, T/C / %: 67
--
COMPOUND: Nc1ccccc1NC(=O)c1ccc(CNC(=O)OCc2cccnc2)cc1 + NC1CCC(NC2CC2c2ccccc2)CC1
viability, T/C / %: 91.1
--
COMPOUND: Nc1ccccc1NC(=O)c1ccc(CNC(=O)OCc2cccnc2)cc1 + NC1CC1c1ccc(-c2cccc(O)c2)cc1
viability, T/C / %: 81.7
--
COMPOUND: Nc1ncn(C2CC(O)C(CO)S2)c(=O)n1 (centres undefined) + NC1CCC(NC2CC2c2ccccc2)CC1
viability, T/C / %: 30.3

Now for another entry.
Inquiry: Input NS(=O)(=O)OCC1CC(n2ccc3c(NC4CCc5ccccc54)ncnc32)CC1O (centres undefined) + NC1CCC(NC2CC2c2ccccc2)CC1 , output reported viability, T/C.
Reply text: 88.7

====

system: 349418-098-R-PDC complex spheroid viability; assay: Anticancer human tumor 349418-098-R-PDC cell line growth inhibition; conditions: second compound 3.16 µM; first compound 0.1 µM; active = viability on the fitted dose curve at most 10% of control; inactive = the rest;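 note: spheroids exposed to agents for seven days before readout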
Choose the fitting class; nothing outside y (active), n (inactive) is accepted.

MOLECULE: CC1COCCN1c1cc(C2(S(C)(=N)=O)CC2)nc(-c2ccnc3[nH]ccc23)n1 (configuration not stated) + NC1CC1c1ccc(-c2cccc(O)c2)cc1
ASSIGNED_LABEL: n
--
MOLECULE: CC1(C)CCC(CN2CCN(c3ccc(C(=O)NS(=O)(=O)c4ccc(NCC5CCOCC5)c([N+](=O)[O-])c4)c(Oc4cnc5[nH]ccc5c4)c3)CC2)=C(c2ccc(Cl)cc2)C1 + NC1CCC(NC2CC2c2ccccc2)CC1
ASSIGNED_LABEL: n
--
MOLECULE: Nc1ncn(C2CC(O)C(CO)O2)c(=O)n1 (configuration not stated) + NC1CC1c1ccc(-c2cccc(O)c2)cc1
ASSIGNED_LABEL: n
--
MOLECULE: COc1cc(Nc2ncc3c(n2)-c2ccc(Cl)cc2C(c2c(F)cccc2OC)=NC3)ccc1C(=O)O + NC1CCC(NC2CC2c2ccccc2)CC1
ASSIGNED_LABEL: n

Inquiry: GET /call?item= CC(C)c1c(-c2ccccc2)nc2c(C#N)c[nH]n2c1=O + NC1CC1c1ccc(-c2cccc(O)c2)cc1 returns the recorded outcome of this test.
Reply text: n

Inquiry: GET /call?item= CC(C)CC(NC(=O)C(Cc1ccccc1)NC(=O)c1cnccn1)B(O)O (configuration not stated) + NC1CC1c1ccc(-c2cccc(O)c2)cc1 returns the recorded outcome of this test.
Reply text: y

Inquiry: GET /call?item= CC(C)CC(NC(=O)C(Cc1ccccc1)NC(=O)c1cnccn1)B(O)O (configuration not stated) + NC1CCC(NC2CC2c2ccccc2)CC1 returns the recorded outcome of this test.
Reply text: y

====

tested on: 349418-098-R-PDC complex spheroid viability; assay: Anticancer human tumor 349418-098-R-PDC cell line growth inhibition; details: second compound 1 µM; first compound 0.00316 µM; stronger effect = lower value;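 note: spheroids exposed to agents for seven days before readout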;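 for viability, T/C: 100% = DMSO vehicle control wells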
# viability, T/C per record follows
Entry rule: numbers only, all in %.

Some entries whose results are on file:
COMPOUND: O=C(C=Cn1cnc(-c2cc(C(F)(F)F)cc(C(F)(F)F)c2)n1)NNc1cnccn1 + NC1CC1c1ccc(-c2cccc(O)c2)cc1
ENDPOINT_UNIT: %
viability, T/C: 21.3
--
COMPOUND: Nc1ncn(C2CC(O)C(CO)O2)c(=O)n1 (stereo not given) + NC1CC1c1ccc(-c2cccc(O)c2)cc1
ENDPOINT_UNIT: %
viability, T/C: 105
--
COMPOUND: CC1COCCN1c1cc(-c2ccnn2C)c2ccnc(-c3ccn[nH]3)c2n1 (stereo not given) + NC1CC1c1ccc(-c2cccc(O)c2)cc1
ENDPOINT_UNIT: %
viability, T/C: 23.5
--
COMPOUND: CC1COCCN1c1cc(-c2ccnn2C)c2ccnc(-c3ccn[nH]3)c2n1 (stereo not given) + NC1CCC(NC2CC2c2ccccc2)CC1
ENDPOINT_UNIT: %
viability, T/C: 98.5

Now for another entry.
Inquiry: Input Cn1ncnc1C1c2n[nH]c(=O)c3cc(F)cc(c23)NC1c1ccc(F)cc1 (stereo not given) + NC1CC1c1ccc(-c2cccc(O)c2)cc1 , output reported viability, T/C.
Reply text: 106
